target: PA–PB1 interaction (6His-PA(239–716) / GST-PB1(1–25)) (Influenza A virus); assay: biochemical; type: binding
pIC50: −log10 of the molar value.
Field: pIC50. Provide a value for each of the compounds that follow.

Task item: What measured pIC50 goes with `COC(=O)[C@H](Cc1c[nH]cn1)NC(=O)CSc1cc(-c2ccccc2)cc(-c2ccc(F)cc2)n1` ?
Reply: < 3.70

Task item: What measured pIC50 goes with `COC(=O)[C@@H](NC(=O)CSc1nc(-c2ccccc2)cc(-c2ccc(F)cc2)n1)C(C)C` ?
Reply: < 3.70

Task item: What measured pIC50 goes with `CC[C@H](C)[C@H](NC(=O)CSc1cc(-c2ccccc2)cc(-c2ccccc2)n1)C(=O)OC` ?
Reply: < 3.70

Task item: What measured pIC50 goes with `Cc1cccc(NC(=O)CSc2nc(-c3ccc(F)cc3)cc(-c3ccc(Cl)cc3)n2)c1` ?
Reply: 3.90

Reference for the values: paper PMC11279468
